Give residual activity for every item shown.
- MEASURED_ON: STK38 (human) (UniProt Q15208)
- Sequence (Q15208 whole entry, looked up): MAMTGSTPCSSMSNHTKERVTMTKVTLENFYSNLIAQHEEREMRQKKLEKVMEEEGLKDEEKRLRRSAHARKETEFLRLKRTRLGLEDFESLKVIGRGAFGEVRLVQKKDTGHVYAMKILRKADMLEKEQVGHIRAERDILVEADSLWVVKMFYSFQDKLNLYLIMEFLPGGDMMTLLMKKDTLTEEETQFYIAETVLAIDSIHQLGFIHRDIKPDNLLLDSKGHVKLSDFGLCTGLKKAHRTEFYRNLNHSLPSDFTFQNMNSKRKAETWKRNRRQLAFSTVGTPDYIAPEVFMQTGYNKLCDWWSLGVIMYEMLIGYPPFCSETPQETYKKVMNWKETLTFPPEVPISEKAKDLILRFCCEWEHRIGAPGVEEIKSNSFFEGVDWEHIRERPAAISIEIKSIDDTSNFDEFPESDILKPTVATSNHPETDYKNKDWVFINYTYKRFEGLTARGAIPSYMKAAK
- METHOD_DESCRIPTION: radiometric filter-binding kinase assay, Kinase HotSpot
- CONDITION_SUMMARY: compound 0.5 µM; ATP 10 µM
Your answer is read as %, so omit the unit and give the number.

Can you share its residual activity? I mean this compound: "CCOC(=O)c1c(C)[nH]c(/C=C2\C(=O)Nc3ccccc32)c1C"
101

Can you share its residual activity? I mean this compound: "O=C1NC(=O)c2c1c1c3ccccc3n3c1c1c2c2ccccc2n1C1CCC3O1"
46.2

Can you share its residual activity? I mean this compound: "Nc1ncnc2c1c(-c1ccc(Oc3ccccc3)cc1)cn2C1CCCC1"
99.3

Can you share its residual activity? I mean this compound: "CCC(=O)Nc1ccc2ncnc(Nc3cccc(Br)c3)c2c1"
100

Can you share its residual activity? I mean this compound: "Cc1[nH]c(/C=C2\C(=O)Nc3ccc(S(=O)(=O)N(C)c4cccc(Cl)c4)cc32)c(C)c1C(=O)N1CCN(C)CC1"
102

Can you share its residual activity? I mean this compound: "CC(C)N(CCC(=O)c1ccc2ccccc2c1)Cc1ccccc1"
100

Can you share its residual activity? I mean this compound: "O=C1NC(=O)C(c2cn(CCCn3ccnc3)c3ccccc23)=C1Nc1ccccc1"
99.1

Can you share its residual activity? I mean this compound: "N#C/C(=C(/N)Sc1ccc(N)cc1)c1ccccc1C(F)(F)F"
93.1

Can you share its residual activity? I mean this compound: "Nc1ncnc2[nH]nc(Nc3ccc(F)cc3)c12"
101

Can you share its residual activity? I mean this compound: "N#CC(C#N)=C(N)/C(C#N)=C/c1ccc(O)cc1"
96.9

Can you share its residual activity? I mean this compound: "CNC(=O)c1cc(Oc2ccc(NC(=O)Nc3ccc(Cl)c(C(F)(F)F)c3)cc2)ccn1"
99.8

Can you share its residual activity? I mean this compound: "CCN(CC)CCNC(=O)c1c(C)[nH]c(/C=C2\C(=O)Nc3ccc(Cl)cc32)c1C"
95.8

Can you share its residual activity? I mean this compound: "Cc1ccc(Nc2nccc(N(C)c3ccc4c(C)n(C)nc4c3)n2)cc1S(N)(=O)=O"
100

----------
Give residual activity for every item shown.
- MEASURED_ON: UniProt:O75676
- Sequence (O75676 whole entry, looked up): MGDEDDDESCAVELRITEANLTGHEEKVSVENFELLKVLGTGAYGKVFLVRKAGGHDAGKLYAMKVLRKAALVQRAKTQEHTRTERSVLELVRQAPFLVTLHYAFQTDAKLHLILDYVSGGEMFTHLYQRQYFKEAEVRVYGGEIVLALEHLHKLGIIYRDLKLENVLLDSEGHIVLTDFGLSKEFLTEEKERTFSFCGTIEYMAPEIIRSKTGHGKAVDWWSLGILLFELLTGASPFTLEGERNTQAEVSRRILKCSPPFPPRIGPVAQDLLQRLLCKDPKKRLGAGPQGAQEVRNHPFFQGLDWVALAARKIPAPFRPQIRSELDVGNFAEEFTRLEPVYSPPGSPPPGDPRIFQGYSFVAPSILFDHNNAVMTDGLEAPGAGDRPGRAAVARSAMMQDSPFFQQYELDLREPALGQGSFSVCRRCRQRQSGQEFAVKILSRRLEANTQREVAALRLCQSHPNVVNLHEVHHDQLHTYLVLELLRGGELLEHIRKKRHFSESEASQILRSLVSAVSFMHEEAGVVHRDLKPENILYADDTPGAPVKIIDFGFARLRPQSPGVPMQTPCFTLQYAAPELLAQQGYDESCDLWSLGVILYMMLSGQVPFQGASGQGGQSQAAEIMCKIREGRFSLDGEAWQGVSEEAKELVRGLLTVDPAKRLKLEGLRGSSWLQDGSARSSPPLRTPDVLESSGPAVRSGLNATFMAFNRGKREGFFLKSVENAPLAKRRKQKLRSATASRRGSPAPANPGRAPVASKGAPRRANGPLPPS
- METHOD_DESCRIPTION: radiometric filter-binding kinase assay, Kinase HotSpot
- CONDITION_SUMMARY: compound 0.5 µM; ATP 10 µM
Your answer is read as %, so omit the unit and give the number.

Can you share its residual activity? I mean this compound: "Cc1ccc(Nc2nccc(N(C)c3ccc4c(C)n(C)nc4c3)n2)cc1S(N)(=O)=O"
102

Can you share its residual activity? I mean this compound: "CC(=O)c1ccc(N2CCOCC2)cc1O"
103

Can you share its residual activity? I mean this compound: "c1ccc(-c2n[nH]c3c2oc2ccccc23)cc1"
90.2

Can you share its residual activity? I mean this compound: "Cc1ccc(NC2=CC(=O)c3sc(C)nc3C2=O)cc1"
88.4

Can you share its residual activity? I mean this compound: "CCCC(=O)Oc1ccc2[nH]c(C(=O)c3cc4ccccc4[nH]3)cc2c1"
99.1

Can you share its residual activity? I mean this compound: "Cc1[nH]c(/C=C2\C(=O)Nc3ccc(S(=O)(=O)N(C)c4cccc(Cl)c4)cc32)c(C)c1C(=O)N1CCN(C)CC1"
109

Can you share its residual activity? I mean this compound: CO[C@H]1CC2CC[C@@H](C)[C@@](O)(O2)C(=O)C(=O)N2CCCC[C@H]2C(=O)OC([C@H](C)C[C@@H]2CC[C@@H](O)[C@H](OC)C2)CC(=O)[C@H](C)/C=C(\C)[C@@H](O)[C@@H](OC)C(=O)[C@H](C)C[C@H](C)/C=C/C=C/C=C/1C (stereo partly drawn)
91.8

Can you share its residual activity? I mean this compound: "O=c1cc(N2CCOCC2)oc2c1ccc1ccccc12"
99.4

Can you share its residual activity? I mean this compound: "CCOC(=O)c1c(C)[nH]c(/C=C2\C(=O)Nc3ccccc32)c1C"
87

Can you share its residual activity? I mean this compound: "COc1cc2ncnc(Nc3cccc(Cl)c3)c2cc1OC"
94.5

Can you share its residual activity? I mean this compound: "COc1ccc2c(c[n+](C)c3c4cc5c(cc4ccc23)OCO5)c1OC"
88.3

Can you share its residual activity? I mean this compound: "CC#CC(=O)Nc1cc2c(Nc3ccc(F)c(Cl)c3)ncnc2cn1"
100

Can you share its residual activity? I mean this compound: "CNC(=O)c1cc(Oc2ccc(NC(=O)Nc3ccc(Cl)c(C(F)(F)F)c3)cc2)ccn1"
97.7
